Experiment: Organ distribution in normal ICR mice after iv injection of radiolabeled tracer
Assay type: in vivo
Conditions: [125I]-labeled tracer, 2 hr
Method: The mice (n=3 for each time point) were sacrificed by cervical dislocation at designated time-points post injection. The organs of interest were removed and weighed, and the radioactivity was counted with an automatic gamma counter. The percentage dose per organ was calculated by a comparison of the tissue counts to suitably diluted aliquots of the injected material. The total activity of the blood was calculated under the assumption that it is 7% of the total body weight. […]
reported-property: Biodistribution: Lung (% dose/g)
Give bare numbers, in % dose/g.

Some entries whose results are on file:
>>> print(df.to_string())
                                   compound      reported_property  recorded_number
0  CN(C)c1ccc(/C=C/c2cnc(OCCO)c(I)c2)cc1 [[^125I]16a]  Biodistribution: Lung             1.00
1  CNc1ccc(/C=C/c2cnc(OCCO)c(I)c2)cc1 [[^125I]16b]  Biodistribution: Lung             1.58
2  CN(C)c1ccc(/C=C/c2cnc(OCCOCCOCCF)c(I)c2)cc1 [[^125I]13a]  Biodistribution: Lung             1.33

The record that follows has no Biodistribution: Lung shown yet.
Param item = CNc1ccc(/C=C/c2cnc(OCCOCCOCCF)c(I)c2)cc1 [[^125I]13b] ; retrieve measured Biodistribution: Lung.
1.85

###

assay: Organ distribution in normal ICR mice after iv injection of radiolabeled tracer; assay type: in vivo; details: [125I]-labeled tracer, 1 hr
reported-property: Biodistribution: Skin (% dose/g)
Give bare numbers, in % dose/g.

Some entries whose results are on file:
>>> df
                                   molecule      reported_property  readout_units  recorded_number
0  CNc1ccc(/C=C/c2cnc(OCCOCCOCCF)c(I)c2)cc1 [[^125I]13b]  Biodistribution: Skin       % dose/g             2.46
1  CN(C)c1ccc(/C=C/c2cnc(OCCOCCOCCF)c(I)c2)cc1 [[^125I]13a]  Biodistribution: Skin       % dose/g             1.59
2  CN(C)c1ccc(/C=C/c2cnc(OCCO)c(I)c2)cc1 [[^125I]16a]  Biodistribution: Skin       % dose/g             1.16

The record that follows has no Biodistribution: Skin shown yet.
Param item = CNc1ccc(/C=C/c2cnc(OCCO)c(I)c2)cc1 [[^125I]16b] ; retrieve measured Biodistribution: Skin.
1.29

###

Kindly state Biodistribution: Liver for each of the entries shown.
experiment: Organ distribution in normal ICR mice after iv injection of radiolabeled tracer; format: in vivo; settings: [125I]-labeled tracer, 2 min
Answers are plain numbers, in % dose/g.

Some entries whose results are on file:
>>> print(df.to_string())
                                   compound  recorded_number
0  CNc1ccc(/C=C/c2cnc(OCCO)c(I)c2)cc1 [[^125I]16b]            20.84
1  CN(C)c1ccc(/C=C/c2cnc(OCCOCCOCCF)c(I)c2)cc1 [[^125I]13a]            22.15
2  CNc1ccc(/C=C/c2cnc(OCCOCCOCCF)c(I)c2)cc1 [[^125I]13b]            26.24

Param item = CN(C)c1ccc(/C=C/c2cnc(OCCO)c(I)c2)cc1 [[^125I]16a] ; retrieve measured Biodistribution: Liver.
19.12

###

assay: Organ distribution in normal ICR mice after iv injection of radiolabeled tracer; format: in vivo; conditions: [125I]-labeled tracer, 2 min
reported-property: Biodistribution: Muscle (% dose/g)
Give bare numbers, in % dose/g.

Some entries whose results are on file:
>>> print(df.to_string())
                                   compound        reported_property  recorded_number
0  CN(C)c1ccc(/C=C/c2cnc(OCCOCCOCCF)c(I)c2)cc1 [[^125I]13a]  Biodistribution: Muscle             0.90
1  CN(C)c1ccc(/C=C/c2cnc(OCCO)c(I)c2)cc1 [[^125I]16a]  Biodistribution: Muscle             0.71
2  CNc1ccc(/C=C/c2cnc(OCCOCCOCCF)c(I)c2)cc1 [[^125I]13b]  Biodistribution: Muscle             1.04

Param item = CNc1ccc(/C=C/c2cnc(OCCO)c(I)c2)cc1 [[^125I]16b] ; retrieve measured Biodistribution: Muscle.
1.15

###

test: Organ distribution in normal ICR mice after iv injection of radiolabeled tracer; format: in vivo; settings: [125I]-labeled tracer, 2 hr
reported-property: Biodistribution: Spleen (% dose/g)
Give bare numbers, in % dose/g.

Some entries whose results are on file:
                                   compound  recorded_number
0  CNc1ccc(/C=C/c2cnc(OCCOCCOCCF)c(I)c2)cc1 [[^125I]13b]             1.27
1  CN(C)c1ccc(/C=C/c2cnc(OCCOCCOCCF)c(I)c2)cc1 [[^125I]13a]             0.79

Okay, here is my list. What is Biodistribution: Spleen for each of these?
1. CNc1ccc(/C=C/c2cnc(OCCO)c(I)c2)cc1 [[^125I]16b]
2. CN(C)c1ccc(/C=C/c2cnc(OCCO)c(I)c2)cc1 [[^125I]16a]

[1.08, 0.80]

###

experiment: Organ distribution in normal ICR mice after iv injection of radiolabeled tracer; format: in vivo; details: [125I]-labeled tracer, 2 hr
reported-property: Biodistribution: Muscle (% dose/g)
Give bare numbers, in % dose/g.

                                   compound        reported_property  recorded_number
0  CNc1ccc(/C=C/c2cnc(OCCO)c(I)c2)cc1 [[^125I]16b]  Biodistribution: Muscle             0.38
1  CN(C)c1ccc(/C=C/c2cnc(OCCO)c(I)c2)cc1 [[^125I]16a]  Biodistribution: Muscle             0.22
2  CN(C)c1ccc(/C=C/c2cnc(OCCOCCOCCF)c(I)c2)cc1 [[^125I]13a]  Biodistribution: Muscle             0.53

The record that follows has no Biodistribution: Muscle shown yet.
Param item = CNc1ccc(/C=C/c2cnc(OCCOCCOCCF)c(I)c2)cc1 [[^125I]13b] ; retrieve measured Biodistribution: Muscle.
0.44

###

experiment: Organ distribution in normal ICR mice after iv injection of radiolabeled tracer; type: in vivo; conditions: [125I]-labeled tracer, 30 min
Kindly state Biodistribution: Muscle for each of the entries shown.
Give bare numbers, in % dose/g.

                                   molecule  recorded_number
0  CN(C)c1ccc(/C=C/c2cnc(OCCO)c(I)c2)cc1 [[^125I]16a]             1.05
1  CNc1ccc(/C=C/c2cnc(OCCOCCOCCF)c(I)c2)cc1 [[^125I]13b]             1.11
2  CNc1ccc(/C=C/c2cnc(OCCO)c(I)c2)cc1 [[^125I]16b]             0.91

The record that follows has no Biodistribution: Muscle shown yet.
Param item = CN(C)c1ccc(/C=C/c2cnc(OCCOCCOCCF)c(I)c2)cc1 [[^125I]13a] ; retrieve measured Biodistribution: Muscle.
1.00

###

test: Organ distribution in normal ICR mice after iv injection of radiolabeled tracer; assay type: in vivo; conditions: [125I]-labeled tracer, 1 hr
reported-property: Biodistribution: Heart

Some entries whose results are on file:
In [3]: df
Out[3]:
                                   compound       reported_property                result
0  CNc1ccc(/C=C/c2cnc(OCCOCCOCCF)c(I)c2)cc1 [[^125I]13b]  Biodistribution: Heart  1.75 ± 0.26 % dose/g
1  CN(C)c1ccc(/C=C/c2cnc(OCCO)c(I)c2)cc1 [[^125I]16a]  Biodistribution: Heart  1.12 ± 0.02 % dose/g
2  CN(C)c1ccc(/C=C/c2cnc(OCCOCCOCCF)c(I)c2)cc1 [[^125I]13a]  Biodistribution: Heart  0.97 ± 0.16 % dose/g

The record that follows has no Biodistribution: Heart shown yet.
Param item = CNc1ccc(/C=C/c2cnc(OCCO)c(I)c2)cc1 [[^125I]16b] ; retrieve measured Biodistribution: Heart.
0.88 ± 0.30 % dose/g

###

assay: Organ distribution in normal ICR mice after iv injection of radiolabeled tracer; format: in vivo; settings: [125I]-labeled tracer, 1 hr
Kindly state Biodistribution: Brain for each of the entries shown.
Remember to put the unit after the number in your answer.

>>> print(df.to_string())
                                   compound                result
0  CNc1ccc(/C=C/c2cnc(OCCOCCOCCF)c(I)c2)cc1 [[^125I]13b]  0.62 ± 0.17 % dose/g
1  CNc1ccc(/C=C/c2cnc(OCCO)c(I)c2)cc1 [[^125I]16b]  0.26 ± 0.03 % dose/g
2  CN(C)c1ccc(/C=C/c2cnc(OCCO)c(I)c2)cc1 [[^125I]16a]  1.32 ± 0.00 % dose/g

The record that follows has no Biodistribution: Brain shown yet.
Param item = CN(C)c1ccc(/C=C/c2cnc(OCCOCCOCCF)c(I)c2)cc1 [[^125I]13a] ; retrieve measured Biodistribution: Brain.
0.68 ± 0.17 % dose/g

The measurements presented in this section are drawn from patent US8840866B2.
